Origin of values: patent US8618129B2

target: KCNQ2/3 channels (Homo sapiens, UniProt O43525+O43526); experiment: Fluorescence assay using a voltage sensitive dye (fluorimetry); conditions: CHO-K1 cells expressing KCNQ2/3 channels
pEC50: −log10 of the molar value.
readout: pEC50

{"molecule": "COCCn1c(C(=O)NCc2cccc(F)c2)c(C)c2ccc(C(F)(F)F)cc2c1=O [Example 5]", "pEC50": 6.55}
{"molecule": "Cc1c(C(=O)NCc2cccc(F)c2)n(C(C)C)c(=O)c2cc(C(F)(F)F)ccc12 [Example 4]", "pEC50": 6.42}
{"molecule": "CCCn1c(C(=O)NCc2cccc(F)c2)c(C)c2ccc(C(F)(F)F)cc2c1=O [Example 2]", "pEC50": 6.91}

(1) CCn1c(C(=O)NCc2cccc(F)c2)c(C)c2ccc(C(F)(F)F)cc2c1=O [Example 3]
(2) Cc1c(C(=O)NCc2cccc(F)c2)n(C)c(=O)c2cc(C(F)(F)F)ccc12 [Example 1]
[ask] Pick one: 1 or 2 . Which one has the lower reported pEC50? Reply briefly: the label of your chosen item.
[reply] 2

---

target: KCNQ2/3 channels (Homo sapiens, UniProt O43525+O43526); construct: expressed in transfected cells; host or cells: CHO-K1 cells, kept under selection antibiotics; test: Fluorescence assay using a voltage sensitive dye (fluorimetry); type: cell-based; conditions: CHO-K1 cells expressing KCNQ2/3 channels; agonistic efficacy relative to retigabine = 100%
readout: Emax (%)

Look over these answered cases.
{"compound.string": "CCCn1c(C(=O)NCc2cccc(F)c2)c(C)c2ccc(C(F)(F)F)cc2c1=O", "Emax [%]": 134}
{"compound.string": "COCCn1c(C(=O)NCc2cccc(F)c2)c(C)c2ccc(C(F)(F)F)cc2c1=O", "Emax [%]": 87}
{"compound.string": "Cc1c(C(=O)NCc2cccc(F)c2)n(C(C)C)c(=O)c2cc(C(F)(F)F)ccc12", "Emax [%]": 144}

(P) CCn1c(C(=O)NCc2cccc(F)c2)c(C)c2ccc(C(F)(F)F)cc2c1=O
(Q) Cc1c(C(=O)NCc2cccc(F)c2)n(C)c(=O)c2cc(C(F)(F)F)ccc12
[ask] Pick one, P or Q : lowest reported Emax. // caller expects the label of the chosen entry
[reply] P
